FYI, the data here is from ChEMBL document CHEMBL1201862.

Tested on: SF-268
Test details: NCI tumour cell line growth inhibition, 48 h
Active and inactive are the calls of the source. No stated cut-off is given here; in the data, active = GI50 up to about 1.1 µM and inactive = higher. Where a SMILES comes first, the peptide text is derived from it. The star is where a group is joined. CH2Cl = ClC*
Hello, when you answer, please use one of the following outcomes: yes = active, no = inactive

Request: Write down the call the test reported for this molecule. Item: `CSC(=S)Nc1cc(C)cc(C)n1`
Result: no

Request: What did this assay record as the result for COc1cc(C(=O)OC2CC(C)=CC[C@@]3(C)CC[C@](O)(C(C)C)C23)ccc1O (stereo partly specified) ?
Result: no

Request: Give the logged outcome of this assay for the following molecule: `O=C(NCCc1n[nH]c2c1C(=O)C=C(Nc1ccccc1)C2=O)OCc1ccccc1`
Result: no

Request: Test call for this molecule, please: `Cn1c2ccccc2c(=O)c2c(O)cc3c(c21)C=CC1(CCCC1)O3`
Result: no

Request: Could you check what this test reported for `N#Cc1ccccc1Nc1ccccc1S` ?
Result: no

Request: Can you look up the reported call for CC1=CC(C)C(C)N(CC2=NCCN2)c2ccccc21 (stereo unspecified) for me?
Result: no

Request: Give the logged outcome of this assay for the following molecule: COc1ccc(OC)c2c(C(=O)O)c(C(C)c3ccccc3)ccc12 (stereo unspecified)
Result: no

Request: # fetch the recorded call for `ClCc1ccc2ccc3ccc(CCl)nc3c2n1` here
Result: no

Request: // return assay outcome for CC(=O)NC(CC(C)C)C(=O)NC(Cc1ccccc1)C(=O)CCl (stereo not drawn) (Ac-Leu-Phe-CH2Cl; configuration not given here)
Result: no

Request: Name the outcome recorded for CC(O)CCC(=O)c1ccoc1 (stereo unspecified) in the assay.
Result: no

Request: Identify the outcome logged in this assay for the molecule shown: COc1ccc(N2C(=O)CSC2c2cc(OC)c(OC)c(OC)c2)cc1 (stereo unspecified)
Result: no

Request: Answer briefly: the call reported for COC(=O)C1=C(C(=O)OC)N(c2ccncc2)C(c2ccco2)=CC1c1ccccc1[N+](=O)[O-] (stereo unspecified) in this assay.
Result: no

Request: Tell me the assay call for O=[N+]([O-])c1ccc(N2N=C(c3ccc(NCc4nc5ccccc5[nH]4)cc3)CC2c2ccco2)cc1 (stereo unspecified) please.
Result: no

Request: Per the records of this test, what outcome belongs to CC1(C)C2CCC(CN)(C2)C1O (stereo unspecified) ?
Result: no

Request: Record request — test call for COC(=O)C(C(=O)C(=O)Nc1ccc(Br)cc1)c1nc2ccc(Cl)cc2nc1O (stereo unspecified)
Result: no

Request: Hi, do you know how `[N-]=[N+]=Nc1ccc(S(=O)(=O)Oc2cc(OS(=O)(=O)c3ccc(N=[N+]=[N-])cc3)cc(OS(=O)(=O)c3ccc(N=[N+]=[N-])cc3)c2)cc1` came out in this test?
Result: no

Request: Which outcome was assigned to O=C1C=CC2(O[C@H](C3CCCCC3)[C@@H](C3CCCCC3)O2)C(SC(=O)c2ccccc2)C1 (stereo partly specified) in this test?
Result: no

Request: Per the assay record, what outcome was assigned to `COC(=O)C(=Cc1cc(OC)ccc1OC)C(=O)OC` ?
Result: no

Request: What did the test return for `CC[C@H](O)[C@H](C)C=C1SCCCS1` ?
Result: no

Request: Kindly provide the recorded test outcome for the following molecule: COC1C(N)C(OC2C(Oc3cccc4c(O)c5c(=O)oc6ccc(C)c7c(=O)oc(c34)c5c67)OC(C)C(O)C2(C)O)OC(C)C1O (stereo unspecified)
Result: yes

Request: Identify the outcome logged in this assay for the molecule shown: `Clc1ccc(-c2ccc(-c3nn4c(CNc5ccccc5)nnc4s3)o2)c(Cl)c1`
Result: no
